Attribute: Tox
- Test system: B6Bcl-2 transgenic mice
- TEST_CONTEXT: Bcl-2 transgenic mouse, single ip injection 72 μmol/kg
Please state the value as a number alone, without comment.

[ask] Can you share its Tox? I mean this molecule: Cc1cc2c(C(C)C)c(O)c(O)cc2c(O)c1-c1c(C)cc2c(C(C)C)c(O)c(O)cc2c1O [Apogossypol, reference compound]
[reply] 0

New cases:
[ask] Quick one: Tox for Cc1cc2cc(O)c(O)cc2c(O)c1-c1c(C)cc2cc(O)c(O)cc2c1O ?
[reply] 0

* * *

Read-out record for Bcl-2 (Homo sapiens, UniProt P10415): IC50
Form entry: value (nM) — number only.

Solved entries:
[ask] Entry Cc1cc2c(C(C)C)c(O)c(O)cc2c(O)c1-c1c(C)cc2c(C(C)C)c(O)c(O)cc2c1O [Apogossypol, reference compound] , system Bcl-2 (Homo sapiens, UniProt P10415): what IC50 was measured?
[reply] 4300

[ask] Missing value: IC50, Bcl-2 (Homo sapiens, UniProt P10415), entry Cc1cc2c(CCc3ccccc3)c(O)c(O)cc2c(O)c1-c1c(C)cc2c(CCc3ccccc3)c(O)c(O)cc2c1O [Compound 12e] . Fill in?
[reply] 480

[ask] Value wanted: IC50 (Bcl-2 (Homo sapiens, UniProt P10415)) of entry Cc1cc2c(C(=O)NCCc3cccc(Cl)c3)c(O)c(O)cc2c(O)c1-c1c(C)cc2c(C(=O)NCCc3cccc(Cl)c3)c(O)c(O)cc2c1O [Compound 8p]
[reply] 4400

[ask] // lookup IC50 | system=Bcl-2 (Homo sapiens, UniProt P10415) | key= Cc1cc2c(C(=O)NCCc3ccccc3)c(O)c(O)cc2c(O)c1-c1c(C)cc2c(C(=O)NCCc3ccccc3)c(O)c(O)cc2c1O [Compound 8n]
[reply] 150

[ask] What value of IC50 on Bcl-2 (Homo sapiens, UniProt P10415) does CCc1ccc(CCNC(=O)c2c(O)c(O)cc3c(O)c(-c4c(C)cc5c(C(=O)NCCc6ccc(CC)cc6)c(O)c(O)cc5c4O)c(C)cc23)cc1 [Compound 8q] have?
[reply] 670

[ask] Quick check: IC50 on Bcl-2 (Homo sapiens, UniProt P10415), item Cc1cc2c(C(=O)NCC3CCCCC3)c(O)c(O)cc2c(O)c1-c1c(C)cc2c(C(=O)NCC3CCCCC3)c(O)c(O)cc2c1O [Compound 8m] ?
[reply] 710

Continuing:
[ask] Lab note: need IC50 for Cc1cc2c(C(=O)NC(C)c3ccc(Cl)cc3)c(O)c(O)cc2c(O)c1-c1c(C)cc2c(C(=O)NC(C)c3ccc(Cl)cc3)c(O)c(O)cc2c1O (centres unmarked) [Compound 8k] on Bcl-2 (Homo sapiens, UniProt P10415), anyone have it?
[reply] 490

[ask] Observed IC50 on Bcl-2 (Homo sapiens, UniProt P10415) for Cc1cc(C)c(CNC(=O)c2c(O)c(O)cc3c(O)c(-c4c(C)cc5c(C(=O)NCc6c(C)cc(C)cc6C)c(O)c(O)cc5c4O)c(C)cc23)c(C)c1 [Compound 8j] , please.
Sequence (P10415 whole entry): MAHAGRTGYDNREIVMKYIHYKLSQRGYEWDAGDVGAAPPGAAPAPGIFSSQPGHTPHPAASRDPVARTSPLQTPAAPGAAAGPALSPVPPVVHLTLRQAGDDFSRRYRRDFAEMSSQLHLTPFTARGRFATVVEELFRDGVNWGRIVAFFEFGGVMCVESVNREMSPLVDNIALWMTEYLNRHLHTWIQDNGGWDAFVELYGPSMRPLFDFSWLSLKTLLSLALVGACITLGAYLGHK
[reply] 700

* * *

Below: a set of entries, each annotated with reported EC50.
- Tested on: H1299 cell line
- EXPERIMENT: Cell viability, ATP-LITE assay
- Assay type: cell-based, human
- TEST_CONTEXT: Homo sapiens, NCI-H1299; Table 9; read-out: H1299 EC50
The response must be a number in µM with no trailing unit.

Examples from the recorded data:
[ask] Which EC50 is listed for CCCCC(CC)CC(=O)c1c(O)c(O)cc2c(O)c(-c3c(C)cc4c(C(=O)CC(CC)CCCC)c(O)c(O)cc4c3O)c(C)cc12 (stereo not drawn) [Compound V] ?
[reply] 3

[ask] For the compound shown here, Cc1cc2c(C(=O)CC3CCCCC3)c(O)c(O)cc2c(O)c1-c1c(C)cc2c(C(=O)CC3CCCCC3)c(O)c(O)cc2c1O [Compound XV] , give the reported EC50.
[reply] 2.1

[ask] So what's the measured EC50 for this one? Cc1cc2c(C(=O)c3ccc(C(C)(C)C)cc3)c(O)c(O)cc2c(O)c1-c1c(C)cc2c(C(=O)c3ccc(C(C)(C)C)cc3)c(O)c(O)cc2c1O [Compound X]
[reply] 4.8

[ask] What value of EC50 has been reported for the following compound? Cc1cc2c(C(=O)c3ccc(C(F)(F)F)cc3)c(O)c(O)cc2c(O)c1-c1c(C)cc2c(C(=O)c3ccc(C(F)(F)F)cc3)c(O)c(O)cc2c1O [Compound XI]
[reply] 2

[ask] // returns reported EC50 for input Cc1cc2c(C(=O)CC(C)C)c(O)c(O)cc2c(O)c1-c1c(C)cc2c(C(=O)CC(C)C)c(O)c(O)cc2c1O [Compound IV]
[reply] 3.6

[ask] What value of measured EC50 is listed for Cc1cc2c(C(=O)c3ccccc3)c(O)c(O)cc2c(O)c1-c1c(C)cc2c(C(=O)c3ccccc3)c(O)c(O)cc2c1O [Compound VII] ?
[reply] 4.2

[ask] So what's the measured EC50 for this one? Cc1cc2cc(O)c(O)cc2c(O)c1-c1c(C)cc2cc(O)c(O)cc2c1O [Compound II]
[reply] 13.4

[ask] // query EC50 value for entry Cc1cc2c(C(=O)CCc3ccc(F)cc3)c(O)c(O)cc2c(O)c1-c1c(C)cc2c(C(=O)CCc3ccc(F)cc3)c(O)c(O)cc2c1O [Compound XVI]
[reply] 2.2

[ask] Could you share which EC50 value was measured for Cc1cc2c(C(=O)C3CCCC3)c(O)c(O)cc2c(O)c1-c1c(C)cc2c(C(=O)C3CCCC3)c(O)c(O)cc2c1O [Compound VI] ?
[reply] 3.1

[ask] Could you share which EC50 value was measured for Cc1cc2c(C(=O)c3cccc4ccccc34)c(O)c(O)cc2c(O)c1-c1c(C)cc2c(C(=O)c3cccc4ccccc34)c(O)c(O)cc2c1O [Compound VIII] ?
[reply] 2.4

***
[ask] What EC50 value was documented for this compound, Cc1cc2c(C(=O)Cc3ccccc3)c(O)c(O)cc2c(O)c1-c1c(C)cc2c(C(=O)Cc3ccccc3)c(O)c(O)cc2c1O [Compound I] ?
[reply] 3.5

[ask] Please report the recorded EC50 for Cc1cc2c(C(=O)c3nc4ccccc4s3)c(O)c(O)cc2c(O)c1-c1c(C)cc2c(C(=O)c3nc4ccccc4s3)c(O)c(O)cc2c1O [Compound XVII] .
[reply] 5.8
